- System name: T1, human IL-2Rγ expressed on cells (NK-92, Jurkat) (human) (UniProt P31785)
- T1 sequence (looked up): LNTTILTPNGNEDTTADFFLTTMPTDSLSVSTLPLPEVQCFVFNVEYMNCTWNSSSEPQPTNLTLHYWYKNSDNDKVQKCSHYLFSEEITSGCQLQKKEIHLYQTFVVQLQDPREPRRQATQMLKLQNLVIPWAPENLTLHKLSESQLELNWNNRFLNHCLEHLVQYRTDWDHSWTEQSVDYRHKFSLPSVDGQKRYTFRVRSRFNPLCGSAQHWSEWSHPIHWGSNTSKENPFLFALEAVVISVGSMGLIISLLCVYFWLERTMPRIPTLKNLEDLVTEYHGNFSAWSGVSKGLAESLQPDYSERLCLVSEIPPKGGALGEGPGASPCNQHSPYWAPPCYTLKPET
- Measurement description: flow cytometry on Jurkat cells (endogenous human IL-2Rg), antibody 10 ug/ml
Experimental endpoint: Binding Ratio (Sample over unstained MFIs)
Format: numeric value only, no unit, no commentary.

Consider the worked cases shown below.
[[record]]
binder = "H4H12863P (antibody, human IgG4 S228P, kappa, V domains shown) VH: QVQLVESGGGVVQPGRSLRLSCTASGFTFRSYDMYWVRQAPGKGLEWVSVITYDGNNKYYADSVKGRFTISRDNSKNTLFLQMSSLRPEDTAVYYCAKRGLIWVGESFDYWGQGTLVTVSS VL: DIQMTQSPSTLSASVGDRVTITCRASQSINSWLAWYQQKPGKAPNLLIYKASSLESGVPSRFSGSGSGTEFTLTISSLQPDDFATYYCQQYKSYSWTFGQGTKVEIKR"
value = 13

[[record]]
binder = "H4H12900P (antibody, human IgG4 S228P, kappa, V domains shown) VH: QVQLVESGGGLVKPGGSLRLSCEASGFTFNDFYMTWIRQAPGKGLEWIAYISKSGDKMRYADSVKGRFSTSRDNAKNSLSLQMNSLRAEDTAVYYCARFYGDIWGQGTLVTVSS VL: DIQLTQSPSFLSASVGDRVTITCWASQDISSFLVWYQQKPGKAPNLLIYAASALQSGVPSRFSGSGSGTEFTLTISSLQPEDFASYYCEQLNNYPWTFGQGTKVEIKR"
value = 1


--- query ---
Ask | What value of Binding Ratio (Sample over unstained MFIs) has been recorded for this entry: H4H12858P (antibody, human IgG4 S228P, kappa, V domains shown) VH: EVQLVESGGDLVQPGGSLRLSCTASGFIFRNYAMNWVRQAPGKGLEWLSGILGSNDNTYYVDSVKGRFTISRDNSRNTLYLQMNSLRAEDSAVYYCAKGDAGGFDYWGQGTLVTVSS VL: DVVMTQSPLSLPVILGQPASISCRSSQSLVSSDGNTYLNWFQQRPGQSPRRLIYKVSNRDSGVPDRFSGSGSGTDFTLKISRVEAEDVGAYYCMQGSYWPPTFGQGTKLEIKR
Reply | 1
